Target: T1, SARS-CoV-2 Alpha Variant RBD (SARS-CoV-2 Alpha variant)
T1 construct: domain: RBD; coated on ELISA plates
Test: ELISA, RBD coated
pEC50: −log10 of the molar value.
Test Readout: pEC50

1) PP1113 MBP-5HVZ-PAPA-RN-29-H6 (VHH, Form: Dimer) VHH: QVQLVESGGGLVQPGGSLRLSCAASGYILSENLTAWFRQAPGKAREVVATVTSGDYTNYDDSVKGRFTISRDNAKNTVYLQMNSLKPEDTAVYYCAAGTSDWEVKWSHWGQGTQVTVSS | 9.14
2) PP933 MBP-5HVZ-R5e-C1-H6 (VHH, Form: Dimer) VHH: QVQLVESGGGLVQPGGSLRLSCAASGSIPYVQAMSWFRQAPGKGREGVASIGWGGGTYYADSVKGRFTISRDNAKNTVYLQMNSLKPEDTAVYYCAAKFRENFSFYDYWGQGTQVTVSS | 8.01
3) PP907 MBP-5HVZ-S1b-E11-H6 (VHH, Form: Dimer) VHH: QVQLVESGGGLVQPGGSLRLSCAASGSYASIASMHWFRQAPGKEREFVAGVTSGGSTNYGDSVKGRFTISRDNAKNTVYLQMNSLKPEDTAVYYCNALAGANYESQWEEYNYWGQGTQVTVSS | 8.43
4) PP916 MBP-5HVZ-S3b-A8-H6 (VHH, Form: Dimer) VHH: QVQLVESGGGLVQPGGSLRLSCAASGSIISRVKVHWFRQAPGKSREWVAGIDSGTASYYSDSVKGRFTISRDNAKNTVYLQMNSLKPEDTAVYYCAAENRGYGVDWGQGTQVTVSS | 8.69
5) PP930 MBP-5HVZ-R2b-D4-H6 (VHH, Form: Dimer) VHH: QVQLVESGGGLVQPGGSLRLSCAASGSYASIASMHWFRQAPGKQREFVAGLTSGGSRIYGDSVKGRFTISRDNAKNTVYLQMNSLKPEDTAVYYCTALILHYAGMYDYWGQGTQVTVSS | 8.41
6) PP1115 MBP-5HVZ-PAPA-RN-31-H6 (VHH, Form: Dimer) VHH: QVQLVESGGGLVQPGGSLRLSCAASGSTGSDYAMHWFRQAPGKDREWVAGISSYGSDSYGDSVKGRFTISRDNAKNTVYLQMNSLKPEDTAVYYCAALQASAGAGYYYDYWGQGTQVTVSS | 8.17
7) PP911 MBP-5HVZ-S2b-F7-H6 (VHH, Form: Dimer) VHH: QVQLVESGGGLVQPGGSLRLSCAASGSTLSNNAMHWFRQAPGKAREFVAAIGSSDSTDYKDSVKGRFTISRDNAKNTVYLQMNSLKPEDTAVYYCTALLDSGPGEYNYWGQGTQVTVSS | 8.66
8) PP788 (VHH, not shown: large carriers; small tags and cut ends) VHH: QVQLVESGGGLVQPGGSLRLSCAASGSIESINAIHWFRQAPGKAREEVAAITENDVDYYADSVKGRFTISRDNAKNTVYLQMNSLKPEDTAVYYCASLSSGYQYVGFRYWGQGTQVTVSS | 8.23
9) PP1150 MBP-5HVZ-PAPA-R5b-G1-H6 (VHH, Form: Dimer) VHH: QVQLVESGGGLVQPGGSLRLSCAASGSIGQIVLVHWFRQAPGKQRELVAGITSPSSTYYADSVKGRFTISRDNAKNTVYLQMNSLKPEDTAVYYCNTELEGKTQGFTGKTVWYDYWGQGTQVTVSS | 7.70
10) PP1098 MBP-5HVZ-PAPA-RN-9-H6 (VHH) VHH: QVQLVESGGGLVQPGGSLRLSCAASGLRFAMTEMAWFRQAPGKQREFVALITEGGSGSYGDSVKGRFTISRDNAKNTVYLQMNSLKPEDTAVYYCAALHYTEGANTESATTFDYWGQGTQVTVSS | 9.01
11) PP1100 MBP-5HVZ-PAPA-RN-14-H6 (VHH, Form: Dimer) VHH: QVQLVESGGGLVQPGGSLRLSCAASGENFSGNLVHWFRQAPGKAREGVATVTSTGSGYYADSVKGRFTISRDNAKNTVYLQMNSLKPEDTAVYYCAAKHQKGEIPYYDWGQGTQVTVSS | 9.46
12) PP1147 MBP-5HVZ-PAPA-R5a-B7-H6 (VHH, Form: Dimer) VHH: QVQLVESGGGLVQPGGSLRLSCAASGAFFSYGAIHWFRQAPGKQREEVAAITSGGSTGYADSVKGRFTISRDNAKNTVYLQMNSLKPEDTAVYYCNAGVVWLPSNAAYNLWGQGTQVTVSS | 9.48
13) PP1114 MBP-5HVZ-PAPA-RN-30-H6 (VHH, Form: Dimer) VHH: QVQLVESGGGLVQPGGSLRLSCAASGIPASYLNMHWFRQAPGKQREWVAGAGGTNSNYYQDSVKGRFTISRDNAKNTVYLQMNSLKPEDTAVYYCAALDGAESYDYVYPVWGQGTQVTVSS | 8.79
14) PP1099 MBP-5HVZ-PAPA-RN-12-H6 (VHH, Form: Dimer) VHH: QVQLVESGGGLVQPGGSLRLSCAASGSSFEGNAVHWFRQAPGKNREFVATITTSTSYYYADSVKGRFTISRDNAKNTVYLQMNSLKPEDTAVYYCAARLKDRGPQSEYDYWGQGTQVTVSS | 8.31
15) PP1154 MBP-5HVZ-PAPA-R5d-G1-H6 (VHH, Form: Dimer) VHH: QVQLVESGGGLVQPGGSLRLSCAASGSIFGINDVHWFRQAPGKEREFVATITNGLSARYKDSVKGRFTISRDNAKNTVYLQMNSLKPEDTAVYYCAAQVYITTYELYDYWGQGTQVTVSS | 8.63

meta.source: patent US20240150440A1
